The following binders are listed with their measured EC50, TF-1 cell proliferation (MTT assay) values.
Target: T1, erythropoietin receptor (EPOR) on human TF-1 cells (human, UniProt P19235 25-508)
T1 sequence (looked up): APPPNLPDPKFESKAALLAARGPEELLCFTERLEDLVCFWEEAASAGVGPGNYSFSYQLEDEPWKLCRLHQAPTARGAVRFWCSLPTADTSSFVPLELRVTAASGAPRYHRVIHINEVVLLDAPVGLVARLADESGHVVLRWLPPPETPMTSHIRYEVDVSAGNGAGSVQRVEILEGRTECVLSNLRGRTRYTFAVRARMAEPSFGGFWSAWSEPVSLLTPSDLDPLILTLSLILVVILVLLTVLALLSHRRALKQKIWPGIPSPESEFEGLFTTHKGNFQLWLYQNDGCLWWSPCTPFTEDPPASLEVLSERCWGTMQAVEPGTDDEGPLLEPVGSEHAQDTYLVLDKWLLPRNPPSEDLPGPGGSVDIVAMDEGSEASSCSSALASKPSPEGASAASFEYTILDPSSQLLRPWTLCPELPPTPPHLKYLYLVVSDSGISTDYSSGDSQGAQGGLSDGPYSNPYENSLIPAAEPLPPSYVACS
Test: cell-based or functional assay
Bridges are numbered along the chain shown (N, C = ends). Where no end group is shown, it is not given here.
Record the value in µM, omitting the unit from your answer.

Some binders with recorded EC50, TF-1 cell proliferation (MTT assay):
## Task EC50, TF-1 cell proliferation (MTT assay) lookup needed for GGTYSCHFAKLTWVCKKQGG (disulfide 6-15 (inferred)) [peptide GGTYSCHFAKLTWVCKKQGG] , thanks.
## Result 5.04

## Task EC50, TF-1 cell proliferation (MTT assay) lookup needed for GGTYSCHFGKLTWVCKPQGG (disulfide 6-15 (inferred)) [SEQ ID NO 4 peptide GGTYSCHFGKLTWVCKPQGG] , thanks.
## Result 4.66

***
## Task EC50, TF-1 cell proliferation (MTT assay) lookup needed for Ac-GGTYSCHFGKLTWVCKKQGG (disulfide 6-15 (inferred)) [SEQ ID NO 2 peptide GGTYSCHFGKLTWVCKKQGG (BB49, monomer)] , thanks.
## Result 3.28

## Task EC50, TF-1 cell proliferation (MTT assay) lookup needed for GGTYSCHFGRLTWVCKPQGG (disulfide 6-15 (inferred)) [SEQ ID NO 5 peptide GGTYSCHFGRLTWVCKPQGG] , thanks.
## Result 5.16

## Task EC50, TF-1 cell proliferation (MTT assay) lookup needed for GGTYSCHFGRLTWVCKKQGG (disulfide 6-15 (inferred)) [SEQ ID NO 6 peptide GGTYSCHFGRLTWVCKKQGG] , thanks.
## Result 4.97

## Task EC50, TF-1 cell proliferation (MTT assay) lookup needed for GGTYSCHFGPLTWVCKKQGG (disulfide 6-15 (inferred)) [peptide GGTYSCHFGPLTWVCKKQGG] , thanks.
## Result 2.52
